Assay: Inhibition of FtsZ (unknown origin) assessed as reduction in enzyme GTPase activity
RECORDED METRIC: IC50

COMPOUND: CCC(CC)c1cc([C@H]2CN3CC[C@H]2C[C@@H]3CNCc2ccco2)nc(-c2ccncc2)n1
IC50: 55.7 µM

Kindly review the next compound as well.
Which IC50 is listed for CCC(CC)c1cc([C@H]2CN3CC[C@H]2C[C@@H]3CN)nc(-c2ccncc2)n1 ?
37.5 µM

====

In this section, each of the compounds is paired with its reported MIC.
Test system: Staphylococcus aureus
Assay: Antimicrobial activity against Staphylococcus aureus
Type: functional
Reply with a number, then the unit it belongs to.

COMPOUND: O=C1C[C@@H](c2ccccc2)Oc2c(Cc3ccccc3O)c(O)c(Cc3ccccc3O)c(O)c21 [DICHAMANETIN]
MIC: 0.8 µg/mL
//
COMPOUND: CCC(CC)c1cc([C@H]2CN3CC[C@H]2C[C@@H]3CN)nc(-c2ccncc2)n1
MIC: 9 µg/mL
//
COMPOUND: CC(C)c1c(O)ccc2c1CC[C@H]1C(C)(C)CCC[C@]21C [TOTAROL]
MIC: 1.5 µg/mL

Which MIC is listed for COc1c(OC(C)=O)ccc(/C=N/c2c(C(C)C)cccc2C(C)C)c1[N+](=O)[O-] ?
6.25 µg/mL

Which MIC is listed for CCC(CC)c1cc([C@H]2CN3CC[C@H]2C[C@@H]3CNCc2ccc(CO)o2)nc(-c2ccncc2)n1 ?
24 µg/mL

Which MIC is listed for CCC(CC)c1cc([C@H]2CN3CC[C@H]2C[C@@H]3CNCc2ccco2)nc(-c2ccncc2)n1 ?
12 µg/mL
